Test: Half life in BALB-nu/nu mouse at 10 mg/kg, iv by LC-MS/MS analysis
Type: ADME, organism-based
Set-up: dose 10 mg/kg, route intravenous
Details: in vivo
MEASURED_PROPERTY: half-life (h)
API: value field is a number in h; no unit string.

# input # return recorded half-life for entry `CNS(=O)(=O)[N-]c1cccc(Cc2c(C)c3ccc(Oc4ncccn4)cc3oc2=O)c1F.[Na+]`
# output 4.8

----------
Test: Permeability of the compound at pH 6.5 by PAMPA
Assay type: ADME
Details: read-out: permeability
Note to self: use label 1 only for Papp readings below 5 ×10⁻⁶ cm/s; a reading exactly at 5 ×10⁻⁶ cm/s still gets label 0.

# input Record `CNS(=O)(=O)Nc1cccc(Cc2c(C)c3ccc(Oc4ncccn4)cc3oc2=O)c1F` : is its Papp strictly below 5 ×10⁻⁶ cm/s?
# output label 0

# input Record `CNS(=O)(=O)Nc1cccc(Cc2c(C)c3ccc(Oc4ncccn4)cc3oc2=O)c1` : is its Papp strictly below 5 ×10⁻⁶ cm/s?
# output label 0

# input Record `Cc1c(Cc2cccc(NS(N)(=O)=O)c2F)c(=O)oc2cc(OC(=O)N(C)C)ccc12` : is its Papp strictly below 5 ×10⁻⁶ cm/s?
# output label 0

# input Record `Cc1c(Cc2ccc(F)c(NS(N)(=O)=O)c2)c(=O)oc2cc(OC(=O)N(C)C)ccc12` : is its Papp strictly below 5 ×10⁻⁶ cm/s?
# output label 0

# input Record `CNS(=O)(=O)Nc1cccc(Cc2c(C)c3ccc(Oc4nccs4)cc3oc2=O)c1` : is its Papp strictly below 5 ×10⁻⁶ cm/s?
# output label 1

# input Record `Cc1c(Cc2cccc(NS(N)(=O)=O)c2)c(=O)oc2cc(OC(=O)N(C)C)ccc12` : is its Papp strictly below 5 ×10⁻⁶ cm/s?
# output label 0

# input Record `CNS(=O)(=O)Nc1cccc(Cc2c(C)c3ccc(OC(=O)N(C)C)cc3oc2=O)c1` : is its Papp strictly below 5 ×10⁻⁶ cm/s?
# output label 0

# input Record `CN(C)C(=O)Oc1ccc2c(CF)c(Cc3cccc(NS(N)(=O)=O)c3)c(=O)oc2c1` : is its Papp strictly below 5 ×10⁻⁶ cm/s?
# output label 1

# input Record `CNS(=O)(=O)Nc1cccc(Cc2c(C)c3ccc(Oc4nccs4)cc3oc2=O)c1F` : is its Papp strictly below 5 ×10⁻⁶ cm/s?
# output label 1

# input Record `CNS(=O)(=O)Nc1cccc(Cc2c(CF)c3ccc(OC(=O)N(C)C)cc3oc2=O)c1` : is its Papp strictly below 5 ×10⁻⁶ cm/s?
# output label 1
